# experiment: gradient 5% acetonitrile 3 min, to 50% in 2 min, to 85% in 15 min, held 3 min, 100 µL/min
# condition_summary: column: Zorbax Extend-C18 2.1 x 50 mm; eluents: water / acetonitrile, 0.1% formic acid
Rule: RP-LC retention time below 800 s gives Fulfilled. Equal to or above 800 s gives Not fulfilled.

{"columns": ["molecule", "class_name"],
 "data": [
  ["O=C(c1cncc(Br)c1)N1CCc2cc(-c3csc(C4CC4)n3)ccc21", "Not fulfilled"]
]}

Could you please tell me whether RP-LC retention time recorded for Cc1csc(-c2cc(S(=O)(=O)Nc3ccc(Cl)cc3C)c(C)s2)n1 is less than 800 s?
Not fulfilled

Could you please tell me whether RP-LC retention time recorded for Nc1nc(N2CCCC2)nc2ccccc12 is less than 800 s?
Fulfilled

Could you please tell me whether RP-LC retention time recorded for CC(C)CNC(=O)c1cn(-c2ccc(-c3nc(C(C)(C)C)no3)cn2)cn1 is less than 800 s?
Not fulfilled
